Target: T1, human GIP receptor (human) (UniProt P48546)
T1 sequence (looked up): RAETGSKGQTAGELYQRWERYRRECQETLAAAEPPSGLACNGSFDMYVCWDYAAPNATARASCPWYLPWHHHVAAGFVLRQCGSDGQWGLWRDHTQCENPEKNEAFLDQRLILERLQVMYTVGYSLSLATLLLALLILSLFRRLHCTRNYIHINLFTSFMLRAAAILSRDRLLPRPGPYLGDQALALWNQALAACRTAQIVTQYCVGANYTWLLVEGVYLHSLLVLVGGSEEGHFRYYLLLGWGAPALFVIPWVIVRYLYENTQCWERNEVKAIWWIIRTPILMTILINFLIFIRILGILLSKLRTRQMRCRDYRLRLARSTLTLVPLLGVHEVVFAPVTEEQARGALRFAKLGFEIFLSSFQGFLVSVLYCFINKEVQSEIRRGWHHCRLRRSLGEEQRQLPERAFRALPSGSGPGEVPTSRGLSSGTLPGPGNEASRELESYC
Assay: cell-based or functional assay
cAMP Rel EC50, nM (1% HSA) vs 20 nM: less than gives TRUE; not less than gives FALSE.

YXQGTFTSDFSQXLDKKAQXAFIEYLLEXGESSGEPPPSGE (synthetic construct; SITE 2: note = 2-Aminoisobutyric Acid; SITE 13: note = alpha-methyl-leucine; SITE 17: note = Lysine is chemically modified through conjugation of the epsilon-amino group of the Lysine side chain with (2-[2-(2-Amino-ethoxy)-ethoxy]-acetyl)-(gamma-Glu)-CO-(CH2) 16-CO2H; SITE 20: n) [Example 790]
FALSE

query: Input YXQGTFTSDXSXXLDKKAQXAFIEXLIAGGPSSGAPPPEGS (non-natural residues (Aib, 4Pal, Orn, Me4Pal, αMeY); lipidated K; amide; synthetic construct; SITE 2: note = 2-Aminoisobutyric Acid; SITE 10: note = 3-(4-Pyridyl)-L-alanine; SITE 12: note = L-ornithine; SITE 13: note = alpha-methyl-leucine; SITE 17: note = Lysine is chemically modified through conjugation of the epsilon-amino group of the Lysine side chain with (gamma-Gl)) [Example 1015] ; condition: cAMP Rel EC50, nM (1% HSA) strictly below 20 nM. Does it hold?
result: TRUE

query: Input YXQGTFTSDXSXXLDXKAQXEFIEXLIEGGPSSGAPPPSGSEE (Aib, 4Pal, Orn, Me4Pal, αMeY; acylated lysine; amide; synthetic construct; SITE 2: note = 2-Aminoisobutyric Acid; SITE 10: note = 3-(4-Pyridyl)-L-alanine; SITE 12: note = L-ornithine; SITE 13: note = alpha-methyl-leucine; SITE 16: note = L-ornithine; SITE 17: note = Lysine is chemically modified through conjugation of the epsilon-amino group of the Lys) [Example 973] ; condition: cAMP Rel EC50, nM (1% HSA) strictly below 20 nM. Does it hold?
result: FALSE

query: Input YXQGTXTSDXXIXLDXKAQXXFIEXLIEGGPSSGEPPPSEG (synthetic construct; SITE 2: note = 2-Aminoisobutyric Acid; SITE 6: note = alpha-methyl-2-fluoro-L-phenylalanine; SITE 10: note = 3-(4-Pyridyl)-L-alanine; SITE 11: note = alpha-methyl-L-serine; SITE 13: note = alpha-methyl-leucine; SITE 16: note = L-ornithine; SITE 17: note = Lysine is chemically mo) [Example 401] ; condition: cAMP Rel EC50, nM (1% HSA) strictly below 20 nM. Does it hold?
result: TRUE

query: Input YXQGTFTSDXSXXLDXKAQXAFIEYLIAGGPSSGEPPPSGE (Lys acylated (γ-Glu)2-C18 diacid; non-natural residues; C-terminal amide; synthetic construct; SITE 2: note = 2-Aminoisobutyric Acid; SITE 10: note = 3-(4-Pyridyl)-L-alanine; SITE 12: note = L-ornithine; SITE 13: note = alpha-methyl-leucine; SITE 16: note = L-ornithine; SITE 17: note = Lysine is chemically modified through conjugation of the epsilon-amino group of the Lys) [Example 983] ; condition: cAMP Rel EC50, nM (1% HSA) strictly below 20 nM. Does it hold?
result: TRUE

query: Input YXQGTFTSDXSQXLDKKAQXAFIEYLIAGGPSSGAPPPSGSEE (non-natural residues; AEEA-γGlu-C18 diacid on Lys; amide; synthetic construct; SITE 2: note = 2-Aminoisobutyric Acid; SITE 10: note = 3-(4-Pyridyl)-L-alanine; SITE 13: note = alpha-methyl-leucine; SITE 17: note = Lysine is chemically modified through conjugation of the epsilon-amino group of the Lysine side chain with (2-[2-(2-Amino-ethoxy)-ethoxy]-acetyl)) [Example 1029] ; condition: cAMP Rel EC50, nM (1% HSA) strictly below 20 nM. Does it hold?
result: FALSE

query: Input YXQGTFTSDFSXXLDKKAQXAFIEYLLEXGPSSXAPPPSGS (acylated; synthetic construct; SITE 2: note = 2-Aminoisobutyric Acid; SITE 12: note = L-ornithine; SITE 13: note = alpha-methyl-leucine; SITE 17: note = Lysine is chemically modified through conjugation of the epsilon-amino group of the Lysine side chain with (2-[2-(2-Amino-ethoxy)-ethoxy]-acetyl)-(gamma-Glu)) [Example 238] ; condition: cAMP Rel EC50, nM (1% HSA) strictly below 20 nM. Does it hold?
result: TRUE

query: Input YXQGTFTSDXSQXLDXKAQXQFIEXLIEGGPSSGAPPPSGSEE (non-natural residues, C-terminal amide, acylated Lys with fatty diacid; synthetic construct; SITE 2: note = 2-Aminoisobutyric Acid; SITE 10: note = 3-(4-Pyridyl)-L-alanine; SITE 13: note = alpha-methyl-leucine; SITE 16: note = L-ornithine; SITE 17: note = Lysine is chemically modified through conjugation of the epsilon-amino group of the Lysine side chain with (gamma-Gl)) [Example 1046] ; condition: cAMP Rel EC50, nM (1% HSA) strictly below 20 nM. Does it hold?
result: FALSE

query: Input YXQGTXTSDYSILLDKKAQXXFIEYLEEGGPSSGAPPPS (synthetic construct; SITE 2: note = 2-Aminoisobutyric Acid; SITE 6: note = alpha-methyl-2-fluoro-L-phenylalanine; SITE 17: note = Lysine is chemically modified through conjugation of the epsilon-amino group of the Lysine side chain with (gamma-Glu)2-CO-(CH2)16-CO2H; SITE 20: note = 2-Aminoisobutyric) [Example 415] ; condition: cAMP Rel EC50, nM (1% HSA) strictly below 20 nM. Does it hold?
result: FALSE

query: Input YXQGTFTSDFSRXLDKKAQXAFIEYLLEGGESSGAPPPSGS (synthetic construct; SITE 2: note = 2-Aminoisobutyric Acid; SITE 13: note = alpha-methyl-leucine; SITE 17: note = Lysine is chemically modified through conjugation of the epsilon-amino group of the Lysine side chain with (2-[2-(2-Amino-ethoxy)-ethoxy]-acetyl)2-(gamma-Glu)-CO-(CH2 )16-CO2H; SITE 20:) [Example 149] ; condition: cAMP Rel EC50, nM (1% HSA) strictly below 20 nM. Does it hold?
result: FALSE

query: Input YXQGTFTSDXSXXLDXKAQXEFIEXLIAGGPSSGAPPPSGSEE (non-natural residues; lipidated Lys (γGlu)2-C18 diacid; C-term amide; synthetic construct; SITE 2: note = 2-Aminoisobutyric Acid; SITE 10: note = 3-(4-Pyridyl)-L-alanine; SITE 12: note = L-ornithine; SITE 13: note = alpha-methyl-leucine; SITE 16: note = L-ornithine; SITE 17: note = Lysine is chemically modified through conjugation of the epsilon-amino group of the Lys) [Example 993] ; condition: cAMP Rel EC50, nM (1% HSA) strictly below 20 nM. Does it hold?
result: TRUE
